Measured on: T1, CRBN, Q96SW2
T1 chain: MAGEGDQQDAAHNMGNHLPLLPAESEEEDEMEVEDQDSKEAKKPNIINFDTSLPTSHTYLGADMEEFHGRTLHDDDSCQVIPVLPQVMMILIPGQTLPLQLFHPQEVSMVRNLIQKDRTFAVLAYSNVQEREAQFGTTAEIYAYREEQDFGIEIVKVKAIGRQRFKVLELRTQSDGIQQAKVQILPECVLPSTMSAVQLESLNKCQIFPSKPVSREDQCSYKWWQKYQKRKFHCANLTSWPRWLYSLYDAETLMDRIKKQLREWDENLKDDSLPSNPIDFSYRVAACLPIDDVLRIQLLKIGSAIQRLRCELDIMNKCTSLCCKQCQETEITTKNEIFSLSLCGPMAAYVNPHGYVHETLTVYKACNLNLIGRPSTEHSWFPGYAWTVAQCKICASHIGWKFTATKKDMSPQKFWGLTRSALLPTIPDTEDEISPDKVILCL
Measurement notes: log2 fold change of degron read counts, EGFP-low vs EGFP+ sorted cells (limma voom), compound-induced degradation; higher = more compound-induced degradation of the degron-EGFP fusion; degrons are variants of IKZF1/3 zinc finger 2; compound dose not given here;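 further: pooled lentiviral library of zinc finger degron-EGFP fusions in mCherry-positive Jurkat cells, FACS-sorted after compound exposure, with degron abundance counted by next-generation sequencing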
Recorded conditions: Jurkat; 18 h; compound: compound 19 (5-tert-butyl-thalidomide)
Over roughly 8,300 sequences, “log2 fold change of degron read counts, EGFP-low vs EGFP+ sorted cells (limma voom), compound-induced degradation” has its median near -1.1; the highest 2% begin near 3.2. This is one part of a sample in which the highest values are shown more often than they occur.
Value type: log2 fold change of degron read counts
Reply: number alone, nothing else.

# annotated cases, reported log2 fold change of degron read counts shown
Sequence: FFCEVCGAVFTQKGNLLRHIKL [46F_47F_49E_50V_52G_53A_54V_55F_67L_, Q9UKT9]
Recorded value: 2.87
//
Sequence: FQCNQCGAYFTQKGNLLRHIKL [46F_47Q_49N_50Q_52G_53A_54Y_55F_67L_, Q9UKT9]
Recorded value: -2.89
//
Sequence: FRCEVCGAMFTQKGNLLRHIKL [46F_47R_49E_50V_52G_53A_54M_55F_67L_, Q9UKT9]
Recorded value: -0.953
//
Sequence: FKCDICGAPFTQKGNLLRHIKL [46F_47K_49D_50I_52G_53A_54P_55F_67L_, Q9UKT9]
Recorded value: 1.21

Item FKCEVCGAVFTQKGNLLRHIKL [46F_47K_49E_50V_52G_53A_54V_55F_67L_, Q9UKT9] : provide log2 fold change of degron read counts -2.3
